From: patent US20240246913A1

biological target: NDM-1 (Klebsiella pneumoniae, UniProt C7C422); experiment: MBL inhibition, FC-5 fluorescence assay, NDM-1; assay type: biochemical; conditions: FC-5 cephalosporin substrate, fluorescence; ranges of obtained pIC50; read-out: pIC50 NDM-1 (converted)
Sequence (C7C422 29-270, looked up, species assumed): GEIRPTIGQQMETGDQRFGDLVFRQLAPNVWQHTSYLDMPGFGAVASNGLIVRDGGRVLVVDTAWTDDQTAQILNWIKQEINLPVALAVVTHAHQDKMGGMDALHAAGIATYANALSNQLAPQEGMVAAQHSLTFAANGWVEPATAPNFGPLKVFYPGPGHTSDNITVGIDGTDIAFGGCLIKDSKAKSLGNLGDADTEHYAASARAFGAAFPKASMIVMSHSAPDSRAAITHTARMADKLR
Measurement type: IC50

stdin: Entry C[C@@H](c1cccc2c(-c3ccc(NS(=O)(=O)C4COC4)c(F)c3)c(C(=O)O)[nH]c12)N1C[C@]2(C[C@@H](CN)C2)OC1=O [IC-24] has what IC50?
stdout: < 0.1 nM

stdin: Requested read-out: IC50. Entry: COc1cc(-c2c(C(=O)O)[nH]c3c([C@H](C)N4C[C@]5(C[C@@H](CN)C5)OC4=O)cccc23)cnc1O [IC-25]
stdout: > 10 nM

stdin: Given C[C@@H](c1cccc2c(-c3ccncc3)c(C(=O)O)[nH]c12)N1C[C@]2(C[C@@H](CN)C2)OC1=O [IC-38] , state its recorded IC50.
stdout: 0.1 to 1 nM

stdin: Which value of IC50 has been reported for COc1ncc(-c2c(C(=O)O)[nH]c3c([C@H](C)N4C[C@]5(C[C@@H](CN)C5)OC4=O)cccc23)cc1O [IC-27] in the records?
stdout: 0.1 to 1 nM

stdin: Item C[C@@H](c1cccc2c(-c3cn[nH]c3)c(C(=O)O)[nH]c12)N1C[C@]2(C[C@@H](CN)C2)OC1=O [IC-43] has what recorded IC50?
stdout: 0.1 to 1 nM

stdin: What value of IC50 has been recorded for this entry: C[C@@H](c1cccc2c(-c3ccn(C)c(=O)c3)c(C(=O)O)[nH]c12)N1C[C@]2(C[C@@H](CN)C2)OC1=O [IC-32]
stdout: 0.1 to 1 nM

stdin: # IC50 lookup, item CNc1cc(-c2c(C(=O)O)[nH]c3c([C@H](C)N4C[C@]5(C[C@@H](CN)C5)OC4=O)cccc23)ccn1 [IC-35]
stdout: > 10 nM
